B1: library; numbered along this chain (parent)
chain: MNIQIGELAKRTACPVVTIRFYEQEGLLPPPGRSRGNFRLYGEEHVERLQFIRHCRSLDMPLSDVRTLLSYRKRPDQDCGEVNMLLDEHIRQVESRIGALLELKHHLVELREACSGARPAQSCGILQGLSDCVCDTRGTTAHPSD

- Variants of: B1
- METHOD: sfGFP reporter fluorescence (15 h) (µM FITC); higher = higher leak
- CONDITION: library round: Round 0; ligand: none
PARAMETER: sfGFP reporter fluorescence
Keep the answer to the number alone.

Some solved entries appear below for comparison.
[
  {
    "ALTERATION": "C79V",
    "sfGFP reporter fluorescence": 0.0572
  },
  {
    "ALTERATION": "L62D",
    "sfGFP reporter fluorescence": 0.0607
  },
  {
    "ALTERATION": "I125M",
    "sfGFP reporter fluorescence": 0.0599
  },
  {
    "ALTERATION": "I125N",
    "sfGFP reporter fluorescence": 0.0581
  },
  {
    "ALTERATION": "L58F",
    "sfGFP reporter fluorescence": 0.0592
  },
  {
    "ALTERATION": "D135G",
    "sfGFP reporter fluorescence": 0.0531
  },
  {
    "ALTERATION": "E88A",
    "sfGFP reporter fluorescence": 0.061
  },
  {
    "ALTERATION": "L126W",
    "sfGFP reporter fluorescence": 0.0586
  },
  {
    "ALTERATION": "I97D",
    "sfGFP reporter fluorescence": 0.0596
  },
  {
    "ALTERATION": "C55T",
    "sfGFP reporter fluorescence": 0.0577
  }
]

Hello, please tell me recorded sfGFP reporter fluorescence for this one: I125R 0.0608

Hello, please tell me recorded sfGFP reporter fluorescence for this one: L129I 0.0535

Where these numbers come from: the supplement of paper PMC12783771
